Examples of molecules with documented TGI follow.
tested on: EKVX NSCLC; test: NCI tumour cell line growth inhibition, 48 h

| MOLECULE | TGI |
| --- | --- |
| COc1cccc(NC(=O)CC(=O)N2N=C(C)C(N=Nc3ccc(C(=O)O)cc3)C2=O)c1 (stereo not given) | > 100 µM |

Fill in TGI for record O=[N+]([O-])c1cc(F)ccc1Sc1ccccc1
> 10 µM

Fill in TGI for record C=CCCCCn1c2ccccc2c2c(C)c3cnccc3c(C)c21
34.4 µM

Fill in TGI for record Cc1cccc(N=C2NC(=O)C(CC(=O)Nc3ccc(C)cc3C)S2)c1 (stereo not given)
> 100 µM

Fill in TGI for record CC1=C(/C=C/C(C)=C/C=C/C(C)=C/C=C/C=C(C)/C=C/C=C(C)/C=C/C2=C(C)C(=O)C(O)CC2(C)C)C(C)(C)CC(O)C1=O (stereo not given)
> 100 µM

Fill in TGI for record CCOC(=O)c1c(-c2ccccc2)c(C(OC(c2ccccc2)c2c(-c3ccccc3)c(C(=O)OCC)n3ccccc23)c2ccccc2)c2ccccn12 (stereo not given)
> 100 µM

###

test system: HCT-116 colon; experiment: NCI tumour cell line growth inhibition, 48 h
Examples of compounds with documented TGI follow.
Answer format: numeric, µM implied, no suffix.

A selection of reference data follows.
| COMPOUND | TGI (µM) |
| --- | --- |
| COC(=O)[C@H]1[C@H]2C[C@@H]3c4[nH]c5cc(OC)ccc5c4CCN3C[C@H]2C[C@@H](OC(=O)/C=C/c2cc(OC)c(OC)c(OC)c2)[C@@H]1OC | 9.57 |
| CC[C@@]12C=CCN3CC[C@]4(c5cc(NC(=O)COc6cc(OCC(=O)Nc7cc8c(cc7OC)N(C)[C@H]7[C@@](O)(C(=O)OC)[C@H](OC(C)=O)[C@]9(CC)C=CCN%10CC[C@]87[C@@H]%109)cc7oc(-c8ccccc8)cc(=O)c67)c(OC)cc5N(C)[C@@H]4[C@](O)(C(=O)OC)[C@H]1OC(C)=O)[C@H]32 | 6.14 |

Please report the measured TGI for CN(C)CCCc1c2ccccc2nc2ccc(Cl)cc12 tested on HCT-116 colon.
25.4

Please report the measured TGI for C[C@]12CC[C@H]3[C@@H](CCC4=C(Br)C(=O)C=C[C@@]43O)[C@@H]1CCC2=O tested on HCT-116 colon.
80.1

Please report the measured TGI for CCC[CH2][Sn]1([CH2]CCC)[O]C(=O)c2ccc(N)cc2[O]1 tested on HCT-116 colon.
2.19

Please report the measured TGI for COc1ccc(OC)c(C[P+](c2ccccc2)(c2ccccc2)c2ccccc2)c1 tested on HCT-116 colon.
14.4

Please report the measured TGI for CC1=NOC(=O)C1N=Nc1ccc(Br)c(C)c1 (centres undefined) tested on HCT-116 colon.
33.9

###

tested on: SF-295 CNS; experiment: NCI tumour cell line growth inhibition, 48 h
*1 amine or outer side, *2 acyl side, *3 side chain or, on linkers, in order; H or OH if unused. Where a SMILES comes first, the peptide text is derived from it. Bridges are numbered along the chain shown (N, C = ends). [ ]: non-standard residue; d: D form. ξ: configuration not given here. X35 = CC[C@H](C)[C@@H](N[*:1])[C@@H](O)CC(=O)O[C@H](C(=O)[C@H](C)C(=O)[*:2])C(C)C; NMeY = CN[C@@H](Cc1ccc(O)cc1)C(=O)O; dNMeL = CN[C@H](CC(C)C)C(=O)O; ξΔPro = O=C(O)C1C=CCN1
Examples of compounds with documented TGI follow.
Answer format: numeric, µM implied, no suffix.

A selection of reference data follows.
| COMPOUND | TARGET | TGI, µM |
| --- | --- | --- |
| CN(C)CCCc1c2ccccc2nc2ccc(Cl)cc12 | SF-295 CNS | 30.9 |
| CCC[CH2][Sn]1([CH2]CCC)[O]C(=O)c2ccc(N)cc2[O]1 | SF-295 CNS | 2.76 |
| CNCCNc1nc2ccccc2c2c(=O)c3cc(F)ccc3sc12 | SF-295 CNS | 3.4 |
| CCOC(=O)c1c2c(n(Cc3ccccc3)c1C)-c1nc(Cc3ccccc3)[nH]c1C(=O)C2=O | SF-295 CNS | 4.14 |
| CC(/C=C/NNC1=NC(c2ccccc2)C(c2ccccc2)=NN1)Sc1ccccc1N (stereo unspecified) | SF-295 CNS | 22.4 |
| COc1cc(/C=C/c2ccc(OC)c(OC)c2OC)cc(OC)c1OC | SF-295 CNS | 55.7 |
| O=C(Nc1ccc(Br)cc1)Nc1nn(C(=O)Nc2ccc(Br)cc2)c2ccccc12 | SF-295 CNS | 66.1 |
| CC1=NOC(=O)C1N=Nc1ccc(Br)c(C)c1 (stereo unspecified) | SF-295 CNS | 66.4 |
| C=CCCCCn1c2ccccc2c2c(C)c3cnccc3c(C)c21 | SF-295 CNS | 26 |

Please report the measured TGI for CC[C@H](C)[C@H]1NC(=O)[C@@H](NC(=O)[C@@H](CC(C)C)N(C)C(=O)C2C=CCN2)[C@@H](C)OC(=O)[C@H](Cc2ccc(OC)cc2)N(C)C(=O)[C@@H]2CCCN2C(=O)[C@H](CC(C)C)NC(=O)[C@@H](C)C(=O)[C@H](C(C)C)OC(=O)C[C@@H]1O (stereo partly specified) (H-[ξΔPro][dNMeL]T[X35]LP[NMeY](Me); ester 3-C) tested on SF-295 CNS.
0.055
